Tested on: SNB-19
Experiment: NCI tumour cell line growth inhibition, 48 h
Active and inactive are the calls of the source. No stated cut-off is given here; in the data, active = GI50 up to about 1.1 µM and inactive = higher.
Returns: one label drawn from active, inactive

Enquiry: Dear all, I need the recorded test outcome for "C[As+](C)(c1ccc(Br)c([N+](=O)[O-])c1)c1ccc(Br)c([N+](=O)[O-])c1" , thank you.
Return: inactive

Enquiry: Now consider "Sc1nnc(/C=C/c2ccc(Cl)c(Cl)c2)[nH]1" and answer again.
Return: inactive

Enquiry: Now consider "C#CC[C@@]12CC(=O)C[C@@H]1CCC1(C2)OCCO1.C#CC[C@]12CC(=O)CC[C@H]1CC(=O)C2" and answer again.
Return: inactive

Enquiry: Now consider COC(OC)c1cccc2c1C1(O)CCC3(CC21)OCCCCO3 (stereo unspecified) and answer again.
Return: inactive

Enquiry: Now consider C=CCCCCOC1C=CC(OC(C)=O)C(COC(C)=O)O1 (stereo unspecified) and answer again.
Return: inactive

Enquiry: Now consider CCOC(=O)c1ccc(N[C@@H]2c3cc4c(cc3C(c3cc(OC)c(O)c(OC)c3)[C@H]3C(=O)OCC32)OCO4)cc1 (stereo partly specified) and answer again.
Return: active

###

System: SK-MEL-5
Assay: NCI tumour cell line growth inhibition, 48 h
Active and inactive are the calls of the source. No stated cut-off is given here; in the data, active = GI50 up to about 1.1 µM and inactive = higher. Peptide text beside a SMILES is read from it. * marks the point of attachment. Boc = CC(C)(C)OC(=O)*
Returns: one label drawn from yes (active), no (inactive)

Enquiry: Dear all, I need the recorded test outcome for "Cc1cccc(/C=N/NC(=S)Nc2ccc(Cl)cc2)n1" , thank you.
Return: yes

Enquiry: Now consider COc1cccc2c1C(=O)c1c(O)c3c(c(O)c1C2=O)C[C@@](O)(/C(C)=N/NC(=O)c1ccc(Cl)c(Cl)c1)C[C@@H]3OC1CC(N)C(O)C(C)O1 (some centres undefined) and answer again.
Return: yes

Enquiry: Now consider "CC(C)(C)NN=C1C(C)(C)C(=NNC(C)(C)C)C1(C)C" and answer again.
Return: no

Enquiry: Now consider "COc1ccc(CNC(=O)[C@H](Cc2ccc(O)cn2)NC(C)=O)cc1OC" and answer again.
Return: no

Enquiry: Now consider CSCCC(NC(=O)C(CC(C)C)NC(=O)CNC(=O)OC(C)(C)C)C(=O)N(C)C (stereo not drawn) (Boc-Gly-Leu-Met-NMe2; configuration not given here) and answer again.
Return: no

Enquiry: Now consider "C1=Nc2sc3c(c2C2=NCCN12)CCCC3" and answer again.
Return: no

Enquiry: Now consider CC(=O)O[C@H]1[C@@H]2OC(=O)[C@@](O)(CC3CCCO3)[C@@H]2CC(=O)[C@](C)(O)CC/C=C(\C)CCC[C@@H]1C (some centres undefined) and answer again.
Return: no

Enquiry: Now consider "O=C1C(c2c(O)[nH]c3ccc(S(=O)(=O)O)cc23)=Nc2ccccc21" and answer again.
Return: no

Enquiry: Now consider "O=C1C(c2cnc3ccccc3n2)=C(O)c2ccccc21" and answer again.
Return: no

Enquiry: Now consider "Cn1c(=O)c2c(nc3n2CCC(=O)N3CCCCl)n(C)c1=O" and answer again.
Return: no

Enquiry: Now consider "Cc1cc(S(=O)(=O)N/C(=C(\C#N)C(=O)c2ccc(Cl)cc2)[n+]2ccc(N(C)C)cc2)c([S-])cc1Cl" and answer again.
Return: no

Enquiry: Now consider CC(C)(C)NCC(O)COc1cccc2[nH]c(C#N)cc12 (centres undefined) and answer again.
Return: no

Enquiry: Now consider "COc1ccc2nc(-c3cccc(N(C)C)c3)cc(O)c2c1" and answer again.
Return: yes

Enquiry: Now consider CC(C)[C@]12O[C@H]1[C@@H]1O[C@@]13[C@@]1(C)CCC4=C(COC4=O)[C@@H]1C[C@@H]1O[C@@]13C2=O [TRIPTONIDE] and answer again.
Return: yes

Enquiry: Now consider COc1ccc(C2SCC(=O)N2c2ccc(-n3c(-c4ccccc4)nc4ccccc4c3=O)cc2)cc1 (centres undefined) and answer again.
Return: no

Enquiry: Now consider Cc1cc(=O)c2c(O)cc3c(c2o1)CC=C(COC1OC(COC2OC(CO)C(O)C(O)C2O)C(O)C(O)C1O)CO3 (centres undefined) and answer again.
Return: no

Enquiry: Now consider "CCCCCCCCCCCC1=C(O)C(=O)C=C(O)C1=O" and answer again.
Return: no

Enquiry: Now consider "Clc1ccc(-c2nc3cc(C45CC6CC(CC(C6)C4)C5)ccc3[nH]2)cc1" and answer again.
Return: no

Enquiry: Now consider "COC(=O)c1c(C#N)[nH]c(-c2ccsc2)c1C(=O)OC" and answer again.
Return: no

Enquiry: Now consider "COC(=O)c1ccc(NCC2=C(Br)C(=O)C=CC2=O)cc1Cl" and answer again.
Return: no

Enquiry: Now consider CC(C)N(C(=O)C12C3C4C1C1C2C3C41C(=O)C(C)(C)C)C(C)C (centres undefined) and answer again.
Return: no

Enquiry: Now consider "N#C/C(=C/c1ccc([N+](=O)[O-])o1)c1ccccc1" and answer again.
Return: no

Enquiry: Now consider "CN1CC=C(c2cccn2C)CC1" and answer again.
Return: no

Enquiry: Now consider Nc1ncc(N)c(NCC2(CO)CC(CCc3ccccc3)C2)n1 (centres undefined) and answer again.
Return: no
